# Study System: COX-2 (Ovis aries)
# Construct: isolated from sheep placenta, purity 70%; purchased Cayman Chemical Company; host or cells: sheep placenta (tissue isolate)
# Sequence (P79208 17-603): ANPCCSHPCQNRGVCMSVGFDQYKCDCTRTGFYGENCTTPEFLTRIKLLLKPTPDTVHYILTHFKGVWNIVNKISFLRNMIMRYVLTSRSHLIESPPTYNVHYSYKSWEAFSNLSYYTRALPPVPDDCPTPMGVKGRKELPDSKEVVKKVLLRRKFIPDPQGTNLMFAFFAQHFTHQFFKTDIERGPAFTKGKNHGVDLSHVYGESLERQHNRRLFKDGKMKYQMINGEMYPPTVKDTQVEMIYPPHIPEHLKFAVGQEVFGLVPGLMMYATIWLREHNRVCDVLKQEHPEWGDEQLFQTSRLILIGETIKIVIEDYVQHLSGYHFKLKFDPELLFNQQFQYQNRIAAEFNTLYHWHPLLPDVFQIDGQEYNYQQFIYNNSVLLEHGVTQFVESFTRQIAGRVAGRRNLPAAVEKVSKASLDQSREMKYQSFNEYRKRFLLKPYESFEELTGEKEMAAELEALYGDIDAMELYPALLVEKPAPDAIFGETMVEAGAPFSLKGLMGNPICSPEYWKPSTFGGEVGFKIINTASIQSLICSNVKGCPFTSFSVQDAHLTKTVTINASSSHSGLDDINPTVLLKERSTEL
# Experiment Notes: COX-2-catalyzed prostaglandin biosynthesis assay in vitro
# Format: biochemical, sheep
# Assay Setup: 10 μg/mL; COX-2 from sheep placenta
# Description: Experiments were performed according to Futaki et al. with modification. In brief, 200 U of COX-1 or COX-2 enzyme was suspended in 0.1 M Tris-HCl buffer (PH 7.5) containing hematin (1 μM) and phenol (2 mM), as co-factors. […] The amount of PGE2 was measured by radioimmunoassay using a liquid scintillation counter. […]
Property: inhibition at 10 µg/mL (%)

C=C1CC[C@H]2[C@](C)(COC(C)=O)CCC[C@]2(C)[C@H]1CO[C@@H](C(=O)OC)[C@H](CC(=O)O)C(=O)OC :: 10.3

I: C=C1CC[C@H]2[C@](C)(COC(C)=O)CCC[C@]2(C)[C@H]1CO[C@@H](C(=O)O)[C@H](CC(=O)O)C(=O)OC
II: C=C1CC[C@H]2[C@](C)(CO)CCC[C@]2(C)[C@H]1CO[C@@H](C(=O)O)[C@H](CC(=O)O)C(=O)OC
III: CC(C)O[C@H]1Oc2ccc(O)c3c2[C@@]1(C)[C@H]1C(=O)C=C(CO)C1=C3
input: Kindly order the items shown according to inhibition at 10 µg/mL, from the highest value down. Please list the labels according to the requested order.
output: II, III, I
(II: 19%, III: 7.5%, I: 1.7%)

----------
# Study System: 5-LO (Rattus norvegicus)
# Construct: RBL-1 cell homogenate (1.5 × 10^7 cells); endogenous in cells; host or cells: RBL-1 (rat basophilic leukemia-1) cell homogenate
# Sequence (P12527 whole entry): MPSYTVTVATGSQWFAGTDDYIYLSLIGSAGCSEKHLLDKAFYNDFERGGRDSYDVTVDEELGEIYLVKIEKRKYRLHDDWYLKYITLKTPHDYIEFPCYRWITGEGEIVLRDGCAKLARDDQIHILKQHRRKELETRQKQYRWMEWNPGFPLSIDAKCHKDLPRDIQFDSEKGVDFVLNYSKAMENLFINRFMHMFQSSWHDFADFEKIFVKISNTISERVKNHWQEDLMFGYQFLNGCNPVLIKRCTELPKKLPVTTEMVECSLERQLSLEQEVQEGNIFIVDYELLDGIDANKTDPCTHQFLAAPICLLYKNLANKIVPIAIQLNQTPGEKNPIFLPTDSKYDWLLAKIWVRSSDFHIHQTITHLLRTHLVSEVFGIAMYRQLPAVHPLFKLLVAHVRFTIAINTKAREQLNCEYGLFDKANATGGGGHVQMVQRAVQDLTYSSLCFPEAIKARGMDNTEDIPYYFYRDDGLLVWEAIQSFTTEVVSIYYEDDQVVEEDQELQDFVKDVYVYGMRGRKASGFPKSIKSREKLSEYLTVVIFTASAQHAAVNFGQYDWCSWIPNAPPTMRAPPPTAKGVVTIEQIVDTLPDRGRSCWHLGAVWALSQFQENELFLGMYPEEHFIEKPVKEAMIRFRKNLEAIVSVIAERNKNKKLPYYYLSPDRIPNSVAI
# Experiment Notes: Measurement of RBL-1 5-lipoxygenase activity
# Type: biochemical
# Assay Setup: 10 μg/mL; RBL-1 cell homogenate
Property: inhibition at 10 µg/mL (%)

Here's what some known entries look like.
C=C1CC[C@H]2[C@](C)(COC(C)=O)CCC[C@]2(C)[C@H]1CO[C@@H](C(=O)OC)[C@H](CC(=O)O)C(=O)OC :: 50.1
C=C1CC[C@H]2[C@](C)(CO)CCC[C@]2(C)[C@H]1CO[C@@H](C(=O)O)[C@H](CC(=O)O)C(=O)OC :: 28.9

I: C=C1CC[C@H]2[C@](C)(COC(C)=O)CCC[C@]2(C)[C@H]1CO[C@@H](C(=O)O)[C@H](CC(=O)O)C(=O)OC
II: CC(C)O[C@H]1Oc2ccc(O)c3c2[C@@]1(C)[C@H]1C(=O)C=C(CO)C1=C3
input: Could you check which of I and II has a smaller value for inhibition at 10 µg/mL? Mark your selection by writing its label.
output: I
(I: 14.9%, II: 84.7%)

----------
# Study System: COX-1 (Ovis aries, UniProt P05979)
# Construct: isolated from ram seminal vesicles; purchased Cayman Chemical Company; host or cells: ram seminal vesicles (tissue isolate)
# Sequence (P05979 25-600): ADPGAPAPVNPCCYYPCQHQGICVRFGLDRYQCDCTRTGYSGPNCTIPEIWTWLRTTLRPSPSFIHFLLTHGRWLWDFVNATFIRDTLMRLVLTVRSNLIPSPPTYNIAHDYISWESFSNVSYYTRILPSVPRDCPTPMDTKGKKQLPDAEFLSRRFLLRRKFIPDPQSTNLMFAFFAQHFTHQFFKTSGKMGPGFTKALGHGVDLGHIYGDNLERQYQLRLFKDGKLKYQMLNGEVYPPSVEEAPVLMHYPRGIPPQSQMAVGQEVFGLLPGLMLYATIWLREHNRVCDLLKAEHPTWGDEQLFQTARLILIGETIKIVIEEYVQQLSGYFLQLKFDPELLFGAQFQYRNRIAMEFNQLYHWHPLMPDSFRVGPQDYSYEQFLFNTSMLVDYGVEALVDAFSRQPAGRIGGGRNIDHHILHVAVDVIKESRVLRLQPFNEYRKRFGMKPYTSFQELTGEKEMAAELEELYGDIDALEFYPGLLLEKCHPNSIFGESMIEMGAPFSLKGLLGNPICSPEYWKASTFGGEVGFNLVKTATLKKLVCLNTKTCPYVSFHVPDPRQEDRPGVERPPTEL
# Experiment Notes: COX-1-catalyzed prostaglandin biosynthesis assay in vitro
# Assay type: biochemical, ram
# Assay Setup: 10 μg/mL; COX-1 from ram seminal vesicles
Property: inhibition at 10 µg/mL (%)

CC(C)O[C@H]1Oc2ccc(O)c3c2[C@@]1(C)[C@H]1C(=O)C=C(CO)C1=C3 [Compound 1a] :: 90.5
C=C1CC[C@H]2[C@](C)(COC(C)=O)CCC[C@]2(C)[C@H]1CO[C@@H](C(=O)O)[C@H](CC(=O)O)C(=O)OC [Compound 3, Cryptoporic acid P] :: 40.2

1: C=C1CC[C@H]2[C@](C)(CO)CCC[C@]2(C)[C@H]1CO[C@@H](C(=O)O)[C@H](CC(=O)O)C(=O)OC [Compound 6, cryptoporic acid N]
2: C=C1CC[C@H]2[C@](C)(COC(C)=O)CCC[C@]2(C)[C@H]1CO[C@@H](C(=O)OC)[C@H](CC(=O)O)C(=O)OC [Compound 4, Cryptoporic acid Q]
input: Could you check which of 1 and 2 has a smaller value for inhibition at 10 µg/mL? Mark your selection by writing its label.
output: 1
(1: 35.8%, 2: 66.5%)

src = paper PMC6270288
